# target_or_system: chicken Estrogen Receptor (ERa), ESR1 (gene 396099)
# run_description: ATG_chERa_XSP2: Attagene TRANS-FACTORIAL Multi-Species (XSP2) HepG2 Assay for chicken Estrogen Receptor (ERa) (AID 2283817);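 also: actives raise reporter signal above DMSO so AC50 reflects ER activation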
Results filed as inconclusive are left out. Activity calls are given as the source filed them. The calls were made as follows: active = hit-call score of the fitted dose curve at least 0.9, where 1 is the maximum; inconclusive = response in the unintended direction; inactive = score below 0.9.
Classes to choose from: active, inactive

Previously resolved entries follow.
CCCOCC(=Nc1ccc(Cl)cc1C(F)(F)F)n1ccnc1 ... inactive
C#CC(C)(C)NC(=O)c1cc(Cl)cc(Cl)c1 ... active
CCOP(=S)(OCC)Oc1ccc2c(C)c(Cl)c(=O)oc2c1 ... inactive
COc1ccc(C(=CC(=O)N2CCOCC2)c2ccc(Cl)cc2)cc1OC ... inactive

Could you now look at the following molecule, please?
IN: Recorded test call requested for CCc1cccc(C)c1N(C(=O)CCl)C(C)COC (stereo not given)
OUT: inactive
